The reported measurements were obtained from paper PMC6222706.

- Test Method Notes: Cytotoxicity in SH-SY5Y cells (MTT)
- Assay type: cell-based
- Protocol Conditions: human, SH-SY5Y neuronal cells, concentration reducing cell viability to 50% of control

Compound: COc1cc(/C=C/C(O)=C/C(=O)c2ccccc2)ccc1O
IC50 at 24 h / µM: 104

Compound: O=C(/C=C(O)/C=C/c1ccc(O)c(F)c1)C(F)(F)F
IC50 at 24 h / µM: 109

Compound: O=C(/C=C(O)/C=C/c1ccc(O)cc1F)c1ccccc1
IC50 at 24 h / µM: 104

Compound: COc1cc(/C=C/C(=O)CC(=O)/C=C/c2ccc(O)c(OC)c2)ccc1O [Curcumin, reference compound]
IC50 at 24 h / µM: 48.8

Compound: O=C(/C=C(O)/C=C/c1cc(F)c(O)cc1F)C(F)(F)F
IC50 at 24 h / µM: 187

Compound: O=C(/C=C(O)/C=C/c1ccc(O)c(F)c1F)c1ccccc1
IC50 at 24 h / µM: 126

Compound: COc1cc(/C=C/C(O)=C/C(=O)C(F)(F)F)ccc1O
IC50 at 24 h / µM: 102

Compound: O=C(/C=C(O)/C=C/c1ccc(F)c(O)c1F)C(F)(F)F
IC50 at 24 h / µM: 153

Compound: O=C(/C=C(O)/C=C/c1ccc(O)c(F)c1F)C(F)(F)F
IC50 at 24 h / µM: 200

Compound: O=C(/C=C(O)/C=C/c1ccc(F)c(O)c1F)c1ccccc1
IC50 at 24 h / µM: 119

* * *

Listed next: entries and their corresponding FRAP Assay (%) at 200 µM.
- Test Method Notes: FRAP (Ferric Reducing Antioxidant Power) assay
- Assay type: biochemical
- Protocol Conditions: at 200 µM, 30 min, 593 nm
Value Kind: FRAP Assay (%) at 200 µM

Compound: O=C(/C=C(O)/C=C/c1ccc(O)c(F)c1F)c1ccccc1 [Compound 7a]
Numeric Value: 20.7
//
Compound: O=C(/C=C(O)/C=C/c1ccc(O)c(F)c1)C(F)(F)F [Compound 3b]
Numeric Value: 32.6
//
Compound: O=C(/C=C(O)/C=C/c1cc(F)c(O)cc1F)c1ccccc1 [Compound 6a]
Numeric Value: 25.2
//
Compound: O=C(/C=C(O)/C=C/c1ccc(F)c(O)c1F)C(F)(F)F [Compound 5b]
Numeric Value: 4.7
//
Compound: Cc1c(C)c2c(c(C)c1O)CCC(C)(C(=O)O)O2 (stereo not shown) [Trolox, reference compound]
Numeric Value: 100.0
//
Compound: O=C(/C=C(O)/C=C/c1ccc(O)cc1F)C(F)(F)F [Compound 4b]
Numeric Value: 8.5
//
Compound: O=C(/C=C(O)/C=C/c1ccc(F)c(O)c1F)c1ccccc1 [Compound 5a]
Numeric Value: 5.3
//
Compound: COc1cc(/C=C/C(O)=C/C(=O)c2ccccc2)ccc1O [Compound 1a]
Numeric Value: 55.7
//
Compound: O=C(/C=C(O)/C=C/c1ccc(O)c(F)c1F)C(F)(F)F [Compound 7b]
Numeric Value: 15.3
//
Compound: COc1cc(/C=C/C(O)=C/C(=O)c2ccccc2)ccc1F [Compound 2a]
Numeric Value: 0.7
